Sourced from PubChem BioAssay (NCI)

Measured TGI values are reported for all entries that follow.
System: A549 NSCLC
procedure_summary: NCI tumour cell line growth inhibition, 48 h
measured_attribute: TGI

- Cc1cc(-c2ccccc2)nc(Nc2cc3ccccc3[nH]2)n1: > 100 µM
- C[C@]12CC[C@H]3[C@@H](CC[C@]4(O)C[C@@H](O)CC[C@]34C=O)[C@@]1(O)CC[C@@H]2C1=CC(=O)OC1: 0.408 µM
- O=C1c2ccccc2C(=O)N1CC#CCO: > 100 µM
- Cc1cc(N(CCC#N)CCC#N)ccc1/C(N=Nc1ccc(C(=O)O)cc1)=N\NC(=O)c1ccccc1: > 100 µM
- COC(=O)N[C@@H]1C[C@H]2CC[C@]1(O[Si](C(C)C)(C(C)C)C(C)C)C(=O)C2: 55.7 µM
- CN1CCN(Cc2ccc(NC(=O)c3cncc(C#Cc4ccc(N)nc4)c3)cc2C(F)(F)F)CC1: 7.24 µM
- O=c1c(O)c(-c2ccccc2)oc2c(CP(=O)(O)O)cccc12: > 100 µM
- CC1(C)CC(=O)c2c(N)n[nH]c2C1: > 100 µM
- CC(C)(C)NCC(O)c1ccccc1Cl (configuration not stated): > 100 µM
- COC(=O)Nc1nc2ccc(C(=O)c3cccc(I)c3)cc2[nH]1: 15 µM
- CC1(C)C2CC3C(C)(C2)C31c1cc(Cl)ccc1N (configuration not stated): 24.2 µM
- Cc1cn(C2CC(O)C(Cn3nncc3Cn3nc(Br)c(=O)[nH]c3=O)O2)c(=O)[nH]c1=O (configuration not stated): > 100 µM
- COc1c(C(N)=O)cc(-c2ccc(Cl)cc2)cc1-c1ccc(S(N)(=O)=O)cc1: > 25 µM
- N=c1ncn(C/C=C/c2ccccc2)c2nc[nH]c12: > 100 µM
- O=C(Nc1ccc(Cl)c(Cl)c1)c1ccc(NC2=C(Cl)C(=O)N(Cc3ccccc3)C2=O)cc1: 27.3 µM
- Cc1ccc2ccccc2c1CSc1nc(N)nc2c1ncn2CC(C)C: > 100 µM
- CCCN=C1NC(C)=CSC(Nc2ccccc2)=C1C#N: > 100 µM
- COc1cc(C2c3cccc4cccc(c34)C3CCC(=O)N32)cc(OC)c1O (configuration not stated): > 50 µM
- Clc1cnc(Nc2ccc(OCCN3CCCC3)cc2)nc1NCc1ccco1: 16.3 µM
- NC1CC(=O)c2c(-c3cccs3)sc(-c3cccs3)c21 (configuration not stated): > 100 µM
- CC(=O)OC1CC2(C)C(=CC1C1SCCS1)CCC1C2CCC2(C)C(OC(C)=O)CCC12 (configuration not stated): > 100 µM
- COc1cccc(N2CC(O)=C(c3nc4ccccc4s3)C2=N)c1: > 56.6 µM

###

Tested on: SNB-75 CNS
procedure_summary: NCI tumour cell line growth inhibition, 48 h; in the data active = GI50 below about 0.43 µM; inactive = the rest
Labels: active, inactive

* O=C1/C=C/[C@@H](O)[C@@H]2C[C@@H](O)C[C@H]2/C=C/CCC[C@H](CCO)O1 | active
* C[C@@H]1CC[C@@H]2[C@@H]1[C@H](OC(=O)/C=C/C1CCCCC1)[C@]1(C3CCCCC3)C[C@@H](OC(=O)CO)[C@@]2(C)O1 | inactive
* COC(=O)[C@]1(C)CCC[C@@]2(C)C3=C(CC[C@H]12)C[C@@H](CC(OC(C)=O)OC(C)=O)[C@@H](C)C3 | inactive
* O=C1C=CC2C3C(=O)N(c4ccccc4)C(=O)C3C1N2Cc1ccccc1 (stereo not drawn) | inactive
* O=C(Nc1cccc([N+](=O)[O-])c1)c1cccc(C(=O)Nc2cccc([N+](=O)[O-])c2)c1 | inactive
* COc1cc(OC)c(/C=C/C(=O)c2c(OC)cc(OC)cc2OC)c(OC)c1 | inactive
* N#C/C(=C\c1ccc[nH]1)c1cc(-c2ccc(Cl)cc2)nn1-c1ccccc1 | inactive
* CCCCCCCCN(CCCCCCCC)CC(O)c1cc(-c2ccccc2)nc2ccc(OC)cc12 (stereo not drawn) | inactive

###

System: OVCAR-3 ovarian
procedure_summary: NCI tumour cell line growth inhibition, 48 h
measured_attribute: TGI

* COc1cccc(N2CC(O)=C(c3nc4ccccc4s3)C2=N)c1 | 0.82 µM
* CC1Cc2c(Cl)ncnc2N(C)c2ccccc21 (stereo unspecified) | 20.1 µM
* Cc1cc(I)cc(CN(C)CCCN2CCC(C)CC2)c1O | 28.1 µM
* COc1ccc2c3ccnc(C(F)(F)F)c3n(CCCCN)c2c1 | 15.3 µM
* O=c1c2cccnc2oc2c(Cl)cc(-c3nn[nH]n3)cc12 | > 100 µM
* COc1nn(C)cc1Nc1nccc(-c2c[nH]c3c(NC(=O)[C@@H](C)N4CCN(C)CC4)cccc23)n1 | > 100 µM
* O=c1c(O)c(-c2ccccc2)oc2c(CP(=O)(O)O)cccc12 | > 100 µM
* Cc1cn(C2CC(O)C(Cn3nncc3Cn3nc(Br)c(=O)[nH]c3=O)O2)c(=O)[nH]c1=O (stereo unspecified) | > 100 µM
* Nc1ccc(C#Cc2ccccc2C#CCCCCO)cc1 | 47.2 µM
* CCOC(=O)c1nc2ccccc2nc1Nc1ccc(C(=O)OC)s1 | > 100 µM
* CCCCCCCCCC1CC(=O)OC2=C1C(=O)CCC2 (stereo unspecified) | > 100 µM

###

System: SK-MEL-2 melanoma
procedure_summary: NCI tumour cell line growth inhibition, 48 h
Measured GI50 values are reported for all entries that follow.
measured_attribute: GI50

• C[C@@H]1CC[C@@H]2[C@@H]1[C@H](OC(=O)/C=C/C1CCCCC1)[C@]1(C3CCCCC3)C[C@@H](OC(=O)CO)[C@@]2(C)O1 = 15000 nM
• COC(=O)Nc1nc2ccc(C(=O)c3cccc(I)c3)cc2[nH]1 = 1260 nM
• COc1cc2c(cc1OCC(=O)Nc1ccc(Cl)cc1C(=O)c1ccccc1Cl)N=CC1CCCN1C2=O (stereo not given) = 7400 nM
• c1ccc2c(N=NSc3ncnc4nc[nH]c34)c3ccccc3nc2c1 = 1640 nM
• CC(C)(C)NCC(O)c1ccccc1Cl (stereo not given) = > 100000 nM
• Cc1cc(OCc2ccc(C(F)(F)F)cc2)c2c(c1)C(=O)C=C(NCCN1CCCC1)C2=O = 1990 nM
• CCN1CCN(c2ccc(NC(=O)Nc3nc4ccc(-c5ccccc5OC)cc4s3)cc2)CC1 = 1940 nM
• CCCCCCC(=O)NC1=C(N2CC2)C(=O)C(NC(=O)CCCCCC)=C(N2CC2)C1=O = 2520 nM
• CCCCCCCCN(CCCCCCCC)CC(O)c1cc(-c2ccccc2)nc2ccc(OC)cc12 (stereo not given) = 50300 nM
• Nc1nc(-c2ccc3c(c2)/C(=C\c2cc(Br)c(O)c(Br)c2)C(=O)N3)cs1 = 6960 nM

###

System: SNB-19 CNS
procedure_summary: NCI tumour cell line growth inhibition, 48 h
measured_attribute: TGI

• CCOC(=O)c1nc2ccccc2nc1Nc1ccc(C(=O)OC)s1 = > 100 µM
• COc1ccc2c3ccnc(C(F)(F)F)c3n(CCCCN)c2c1 = 30.7 µM
• O=C(CC(=O)N1N=C(c2ccccc2)C(N=Nc2ccc(S(=O)(=O)CCOS(=O)(=O)O)cc2)C1=O)Nc1ccc(Cl)cc1 (configuration not stated) = > 100 µM
• Cc1ccc(NC(=O)COc2ccc(Cl)cc2)cc1Cl = > 100 µM
• CCCCCCCCCCCC(=O)N(CCCCCCCCC)CC(O)C(O)C(OC1OC(CO)C(O)C(O)C1O)C(O)CO (configuration not stated) = 40.4 µM
• O=C1Sc2ccccc2C(=O)N2CCSC12 (configuration not stated) = > 100 µM
• COc1cc2c3c(n(C)c(=O)c2cc1OC)-c1cc2c(cc1/C3=C\CCCCl)OCO2 = > 100 µM

###

System: SNB-75 CNS
procedure_summary: NCI tumour cell line growth inhibition, 48 h
Measured TGI values are reported for all entries that follow.
measured_attribute: TGI (µM)

• NS(=O)(=O)c1ccc(-n2nc3c(c2-c2cccs2)Cc2ccccc2-3)cc1 = 83.1
• CC(=O)C1=C(C)N(Cc2ccccc2)C2(O)C=CC(=O)C3=C(O)c4ccccc4C(=O)C312 (configuration not stated) = 25
• Cn1nc(C(F)(F)F)cc1-c1cc(Cl)c(OCc2ccc(Cl)cc2)c(-c2ccc(Cl)c(C(F)(F)F)c2)c1O = 2.68
• COc1cccc(N2CC(O)=C(c3nc4ccccc4s3)C2=N)c1 = 1.98

###

Test system: SK-MEL-5 melanoma
procedure_summary: NCI tumour cell line growth inhibition, 48 h
measured_attribute: TGI

• COc1cccc(N2CC(O)=C(c3nc4ccccc4s3)C2=N)c1 = 23 µM
• CC1(C)OCC2OC(n3cnc4c(N)nc(Cl)nc43)C(OS(C)(=O)=O)C2O1 (stereo unspecified) = > 100 µM
• CCOC(=O)c1ccc2nc3n(c2c1)C(c1c(F)cccc1F)SC3 (stereo unspecified) = > 100 µM
• Cc1cc(-c2ccccc2)nc(Nc2cc3ccccc3[nH]2)n1 = > 100 µM
• CCOC(=O)C1=C(Nc2ccc(OC)cc2)C(N)=NC1=N = 55.8 µM
• CC(C)(C)NCC(O)c1ccccc1Cl (stereo unspecified) = > 100 µM
